# procedure.details: Population pharmacokinetic model from 9 clinical studies
# Assay type: in vivo, human
# condition: both sexes, human, plasma, other: gastric tube; final population PK model, population mean; read-out: F1G: Gastric Tube Bioavailability
Square brackets hold non-standard residues; d marks the D form. Peptide text beside a SMILES is read from it. αMeP = C[C@@]1(C(=O)O)CCCN1
metric.name: bioavailability
Answer with the number, then the unit.

(Q) Quick check: bioavailability of C[C@@]1(C(=O)N[C@@H](CCC(=O)O)C(=O)O)CCCN1C(=O)CN [trofinetide] (H-Gly-[αMeP]-Glu-OH) ?
(A) 84.7%
